Reference for the values: ChEMBL document CHEMBL1125254

Assay: Allosteric activity evaluated as the ratio of the oxygen pressure in mmHg between hemoglobin-compound and compound-free hemoglobin (control) solution at which 50% oxygen saturation's are respectively attained.
Returns: string. Value is MET if measured P50d/P50c is below 3, and NOT MET if it is greater than or equal to it.

{"smiles notation": "CC(C)(Oc1ccc(CC(=O)Nc2cc(Cl)cc(Cl)c2)cc1)C(=O)O", "qualitative label": "NOT MET"}
{"smiles notation": "CC(C)(Oc1ccc(NC(=O)Nc2cc(Cl)c(Cl)c(Cl)c2)cc1)C(=O)O", "qualitative label": "MET"}
{"smiles notation": "CC(C)(Oc1ccc(CNC(=O)c2cc(Cl)c(Cl)c(Cl)c2)cc1)C(=O)O", "qualitative label": "MET"}
{"smiles notation": "CC(C)(Oc1ccc(CNC(=O)c2cc(Cl)cc(Cl)c2)cc1)C(=O)O", "qualitative label": "MET"}
{"smiles notation": "CC(C)(Oc1ccc(CNC(=O)c2ccc(Cl)cc2)cc1)C(=O)O", "qualitative label": "MET"}
{"smiles notation": "CC(C)(Oc1ccc(NC(=O)Nc2ccc(Cl)c(Cl)c2)cc1)C(=O)O", "qualitative label": "MET"}
{"smiles notation": "CC(C)(Oc1ccc(CCNC(=O)c2ccc(Cl)cc2)cc1)C(=O)O", "qualitative label": "MET"}
{"smiles notation": "CC(C)(Oc1ccc(CC(=O)Nc2ccc(Cl)cc2)cc1)C(=O)O", "qualitative label": "MET"}
{"smiles notation": "CC(C)(Oc1ccc(CC(=O)Nc2cc(Cl)c(Cl)c(Cl)c2)cc1)C(=O)O", "qualitative label": "NOT MET"}
{"smiles notation": "CC(C)(Oc1ccc(NC(=O)Nc2cc(Cl)cc(Cl)c2)cc1)C(=O)O", "qualitative label": "NOT MET"}
